- System: nuOXPHOS transcripts
- Type: cell-based, mouse
- ASSAY CONTEXT: composite Z-score vs DMSO; Conc 20 μM
Would you kindly list nucOX for each of these molecules?
One number for each entry.

Use these answered entries as a reference point.
| COMPOUND STRUCTURE STRING | nucOX |
| --- | --- |
| CCN1CCN(C(=O)N[C@@H](C(=O)N[C@@H]2C(=O)N3[C@@H]2SC(C)(C)[C@@H]3C(=O)O)c2ccccc2)C(=O)C1=O | −0.339 |
| NCC[C@H](O)C(=O)N[C@@H]1C[C@H](N)[C@@H](O[C@H]2O[C@H](CN)[C@@H](O)[C@H](O)[C@H]2O)[C@H](O)[C@H]1O[C@H]1O[C@H](CO)[C@@H](O)[C@H](N)[C@H]1O | 0.268 |

// switching to the query molecule
API: value(readout= nucOX, system= nuOXPHOS transcripts, query= COc1cc(O)ccc1C(C)=O ) 0.134

----------
- Test system: nuOXPHOS transcripts
- Assay type: cell-based, mouse
- ASSAY CONTEXT: Conc 20 μM; normalized score vs mock-treated (DMSO) wells
ENDPOINT LABEL: nucOX (composite Z-score)
Answers are plain numbers.

Record excerpt, results attached:
| COMPOUND | nucOX (composite Z-score) |
| --- | --- |
| CC(=O)N[C@@H](CC(=O)O)C(=O)O | −0.436 |
| CC(=O)O[C@H]1CC[C@]2(C)C(C[C@H](OC(C)=O)[C@]3(C)C4=CC(=O)OC(c5ccoc5)[C@@]4(C)CCC23)C1(C)C (stereo partly shown) | −1.228 |
| COc1cc(O)c2c(=O)c(-c3ccc(O)cc3)coc2c1OC | −0.674 |
| C=C1C2CC[C@@]3(C)[C@H](c4ccoc4)OC(=O)C[C@]13O[C@H]1C[C@H](OC(C)=O)C(C)(C)[C@H](CC(=O)OC)[C@@]21C | 0.446 |
| O=C(Oc1cc(OC(=O)c2ccccc2)c2c(c1)O[C@H](c1ccc(OC(=O)c3ccccc3)c(OC(=O)c3ccccc3)c1)[C@@H](OC(=O)c1ccccc1)C2)c1ccccc1 [catechin pentabenzoate] | −0.815 |
| CS(=O)(=O)CCCCN=C=S | −0.850 |
| C=C(C)C1Cc2c(ccc(C(=O)O)c2O)O1 (stereo not shown) | −1.065 |
| COC(=O)C[C@H]1C(C)(C)C2(O)OC34CC2C(=O)[C@]1(C)C3CC[C@]1(C)C4=CC(=O)O[C@H]1c1ccoc1 (stereo partly drawn) [8beta-hydroxycarapin, 3,8-hemiacetal] | 0.472 |
| CC(=O)Oc1cc2c(c(C)c1OC(C)=O)CC=C1[C@@]2(C)CC[C@@]2(C)C3C[C@](C)(C(=O)O)CC[C@]3(C)CC[C@]12C (stereo partly shown) [dihydrocelastryl diacetate] | 0.241 |
| CC(C)(O)CC[C@@H](O)[C@](C)(O)[C@H]1CC[C@@]2(O)C3=CC(=O)[C@@H]4C[C@@H](O)[C@@H](O)C[C@]4(C)[C@H]3CC[C@]12C | 0.487 |

List the reported nucOX (composite Z-score) of each compound below.
1. COc1ccc(/C=C/C(=O)O)cc1OC
2. COc1cc(/C=C/CO)ccc1O
3. CC1(C)C=CC(=O)[C@@]2(C)C1CC(=O)[C@]1(C)C2CC[C@@]2(C)[C@H](c3ccoc3)OC(=O)C3OC321 (stereo partly shown)
4. CCC(N)C(O)c1ccc(O)c(O)c1 (stereo not shown) [ethylnorepinephrine]
5. COc1ccc2c(c1)OC/C(=C\c1ccc(OC)c(O)c1)C2=O
6. C=CC(C)(O)CCC=C(C)C (single isomer, unassigned; (+)) [(+)-linalool]
7. CC(=O)Oc1ccccc1C(=O)Oc1ccccc1C(=O)O [diplosalsalate]
8. O=C(O)c1nc2cc(Cl)c(Cl)cc2nc1O

−0.838
−0.688
0.821
−0.195
0.495
0.131
−0.994
−0.313

----------
- Tested on: cellular dehydrogenase activity
- ASSAY CONTEXT: composite Z-score vs mock-treated (DMSO) wells; Conc 20 μM
Record form. Attribute: MTT. Fill in for each entry.
Answers are plain numbers.

| MOLECULE | SUBJECT OF TEST | MTT |
| --- | --- | --- |
| CC(C)c1c(O)ccc2c1CCC1[C@@](C)(C=O)CCC[C@]21C (stereo partly shown) | cellular dehydrogenase activity | 1.526 |
| C=CC(C1=CC(=O)C(OC)=CC1=O)c1ccc(O)cc1 (stereo not shown) [4-methoxy-4′-hydroxy-dalbergione] | cellular dehydrogenase activity | −0.877 |
| CC1(C)C(=O)C=C[C@]2(C)[C@H]3CC[C@@]4(C)[C@H](c5ccoc5)OC(=O)[C@H]5O[C@]54[C@]3(C)C(=O)C[C@@H]12 | cellular dehydrogenase activity | −0.029 |
| COc1cc(OC)c2c(c1Cl)O[C@@]1(C(=O)CC(=O)C[C@H]1C)C2=O [griseofulvic acid, reference compound] | cellular dehydrogenase activity | −0.469 |
| C=C1CCC2C(CC2(C)C)C(=C)CCC1=NO (stereo not shown) [5-hydroxyiminoisocaryophyllene] | cellular dehydrogenase activity | 1.325 |
| C[C@]12CCC(=O)C=C1CCc1ccc(O)cc12 | cellular dehydrogenase activity | −0.984 |

Could I get MTT for every one of these entries?
1. CC(C)=CCCC1(C)C=Cc2c(O)c3c(c(CC=C(C)C)c2O1)OC12C(=CC4CC1C(C)(C)OC2(C/C=C(/C)C(=O)O)C4O)C3=O (stereo not shown) [dihydrogambogic acid]
2. COc1cc(-c2coc3cc(O[C@@H]4O[C@H](CO)[C@@H](O)[C@H](O)[C@H]4O)c(OC)c(O)c3c2=O)cc(O)c1OC
3. CC(=O)O[C@H]1CC[C@]2(C)[C@H]3CC[C@@]4(C)[C@H](c5ccoc5)OC(=O)[C@H]5O[C@]54[C@]3(C)[C@H](OC(C)=O)C[C@H]2C1(C)C [3beta-acetoxydeoxodihydrogedunin]
4. Cc1ccc2c(c1)CC[C@H]1CC(=O)CC[C@]21C
5. C=C1[C@@H]2CC[C@@]3(C)[C@H](c4ccoc4)OC(=O)C[C@]13O[C@H]1CC(=O)C(C)(C)[C@H](CC(=O)OC)[C@]12C
6. CC(=O)O[C@@H]1CC2C(C)(C)CCC[C@]2(C)C2CC[C@]3(C)C(=CC(=O)O[C@H]3c3ccoc3)[C@@]21C (stereo partly shown) [deoxodeoxydihydrogedunin]

["−6.208", "−1.958", "−0.528", "−2.132", 0.322, "−0.551"]

Below are some molecules; for each one, tell me its MTT.
1. CC(=O)c1c(O)c(C)c(O)c2c1oc1c(C(C)=O)c(O)c(C)c(O)c12
2. COC(=O)[C@@H]1OC(=O)C2OC23[C@@]1(C)CCC1[C@@]2(C)CCC(=O)C(C)(C)C2C[C@@H](OC(C)=O)[C@]13C (stereo partly shown) [dihydrogedunic acid, methyl ester]
3. CC(C)c1c(O)ccc2c1CC[C@H]1[C@@](C)(CO)CCC[C@]21C [19-hydroxytotarol]
4. C=CC(C1=CC(=O)C(OC)=C(OC)C1=O)c1ccccc1 (stereo not shown) [3,4-dimethoxydalbergione, reference compound]
5. CCOC(=O)c1c(C)cc(O)c(C=O)c1O
6. COC(=O)[C@@H]1OC(=O)C2OC23[C@@]1(C)CCC1[C@]2(C)C(C[C@@H](O)[C@]13C)C(C)(C)[C@H](OC(C)=O)C[C@@H]2OC(C)=O (stereo partly shown)

1: 0.875; 2: −1.062; 3: 1.198; 4: −6.200; 5: −0.761; 6: −0.427

Each molecule below has a recorded value; state its MTT.
1. COc1ccc(-c2coc3cc(O)ccc3c2=O)c(OC)c1
2. C=C(C)/C=C1/C=CC(=O)C(C)=C1
3. CC(C)=CCOc1cc2oc(=O)ccc2cc1O
4. C[C@@H]([C@H]1OC(C)(C)[C@@H](O)[C@H]1O)[C@@H]1CC[C@]2(C)C3=CC[C@H]4C(C)(C)C(=O)CC[C@]4(C)[C@H]3CC[C@@]12C

−1.138
−6.075
−1.166
−1.060

----------
Exercise: for every item that follows, state its recorded mitoOX.
- System: mtOXPHOS transcripts
- Format: cell-based, mouse
- ASSAY CONTEXT: composite Z-score vs DMSO; Conc 20 μM
One number for each entry.

Check out these entries, answers already filled in.
| COMPOUND | mitoOX |
| --- | --- |
| COc1cc(C(C)=O)cc(OC)c1O | 0.201 |
| CCOC(=O)c1c(C)cc(OC)cc1O [ethyl everninate] | −0.980 |
| CC(C)=CCC/C(C)=C/CC/C(C)=C/CO | −0.401 |
| CO/N=C(\C(=O)N[C@@H]1C(=O)N2C(C(=O)O)=C(COC(C)=O)CS[C@H]12)c1csc(N)n1 | −0.214 |
| C[C@@H]1O[C@@H](O[C@H]2[C@H](O[C@H]3CC[C@@]4(C)[C@@H](CC[C@]5(C)[C@@H]4CC=C4[C@@H]6CC(C)(C)CC[C@]6(C(=O)O)CC[C@]45C)[C@]3(C)CO)OC[C@H](O)[C@@H]2O)[C@H](O)[C@H](O)[C@H]1O [sapindoside A] | 0.322 |

Hi! Can you tell me mitoOX for each of these compounds?
1. CC[C@@H](C)C(=O)O[C@H]1[C@H](O)[C@H]2[C@@H](CN3C[C@@H](C)CC[C@H]3[C@@]2(C)O)[C@@H]2C[C@]34O[C@]5(O)[C@@H](OC(=O)[C@@](C)(O)CC)CC[C@@]3(C)[C@@H]5[C@@H](OC(C)=O)[C@@H](OC(C)=O)[C@H]4[C@@]21O
2. COC(=O)C[C@H]1C2(C)CC34OC5(C)O[C@@]6([C@H](OC(C)=O)C(OC(C)=O)[C@]7(C)C(/C(=C(/O)C(C)C)C(=O)O[C@H]7c7ccoc7)[C@@]6(O5)[C@H](OC(C)=O)[C@@]3(O)C2OC(=O)C(C)C)[C@]14C (stereo partly shown)
3. CO/N=C(\C(=O)N[C@@H]1C(=O)N2C(C(=O)O)=C(COC(N)=O)CS[C@H]12)c1ccco1
4. COc1ccc2c(c1)OCc1c-2oc2cc(OC)ccc12 [dehydrovariabilin]
5. COc1cc2c(cc1OC)[C@@H]1C(=O)c3ccc4c(c3O[C@@H]1CO2)CC(C(C)C)O4 (stereo partly drawn) [beta-dihydrorotenone, reference compound]
6. O=C1CC[C@]23/C=C/C(=O)NCCCCNCCCNC(=O)/C=C/c4ccc(c2c4)O[C@@H]3C1
7. CC(COc1ccccc1)NC(C)C(O)c1ccc(O)cc1 (stereo not shown)
8. Cc1ccc(/N=C/N(C)/C=N/c2ccc(C)cc2C)c(C)c1

["−1.108", "−0.868", 0.699, 0.416, "−0.695", "−0.856", 0.463, "−0.814"]
